System: MDA-MB-435
measurement protocol: NCI tumour cell line growth inhibition, 48 h
This listing pairs compounds with measured TGI.

Recorded results for 2 compounds are shown here.
[[record]]
smiles_repr = "CN(CCc1ccccn1)c1ccc2c(c1)C(=O)c1ccccc1-2"
tested_on = "MDA-MB-435"
value_measured = "> 100 µM"

[[record]]
smiles_repr = "Cc1c(/C=N/NC(=S)N2CCCCC2)c(=O)n(-c2ccccc2)n1C"
tested_on = "MDA-MB-435"
value_measured = "> 100 µM"


Just so you know, measured TGI for COc1cc(/C=C2\SC(N3CCCCC3)=NC2=O)ccc1OCCCCCCOc1ccc(/C=C2\SC(N3CCCCC3)=NC2=O)cc1OC came out at 79.1 µM

Just so you know, measured TGI for O=CNc1ccccc1OCCOc1ccccc1NC=O came out at > 100 µM

Just so you know, measured TGI for CC1=NN(c2nc(N)nc(/C(C#N)=C\c3ccc(-c4ccc([N+](=O)[O-])cc4)o3)n2)C(C)(C)C1 came out at > 100 µM

Just so you know, measured TGI for CCCCCCCCCCCCOCC1(COCCCCCCCCCCCC)COC(c2ccc(N)cc2)OC1 came out at > 100 µM

Just so you know, measured TGI for COc1cc2cc(Oc3cccc(NC(=O)Nc4cc(C(F)(F)F)cc(C(F)(F)F)c4)c3)c(C)nc2cc1OC came out at 4.28 µM

Just so you know, measured TGI for C=C1C[C@@H]2O[C@H]3[C@H]4[C@@H](CC[C@@](C)(OC(=O)CCC)[C@H]42)[C@@H](C)C(=O)O[C@@]3(C)CC[C@H]1OO came out at 33.1 µM

Just so you know, measured TGI for Nn1c(-c2ccc(Cl)cc2)nc2c(-c3ccc(Cl)cc3)nc3ccc(Cl)cc3c2c1=O came out at > 100 µM

====

System: K-562 leukemia
measurement protocol: NCI tumour cell line growth inhibition, 48 h
This listing pairs compounds with measured TGI.

[[record]]
compound = "CC(=O)Oc1cc2cnc3c4cc(OC(C)=O)c(OC(C)=O)cc4ccc3c2cc1OC(C)=O"
tested_on = "K-562 leukemia"
value_measured = "> 100 µM"

[[record]]
compound = "COc1cc([C@@H]2c3cc4c(cc3[C@@H](Nc3ccc(Cl)cc3C(=O)c3ccccc3)[C@H]3COC(=O)[C@H]23)OCO4)cc(OC)c1OC"
tested_on = "K-562 leukemia"
value_measured = "> 100 µM"

[[record]]
compound = "Cc1[nH]c(-c2ccccc2)c2nc(N(C)C)oc(=O)c12"
tested_on = "K-562 leukemia"
value_measured = "> 100 µM"

[[record]]
compound = "N#Cc1cc(S(=O)(=O)Nc2nc3cc(Cl)ccc3o2)c(SCc2ccccc2)cc1Cl"
tested_on = "K-562 leukemia"
value_measured = "27.4 µM"

[[record]]
compound = "Cc1ccc(S(=O)C(C)C(Cl)c2ccccc2)cc1 (stereo unspecified)"
tested_on = "K-562 leukemia"
value_measured = "> 100 µM"


Kindly note: K-562 leukemia, O=C(NCCN1CCCCC1)c1cccc(I)c1 , TGI value reported: > 100 µM

Kindly note: K-562 leukemia, O=C(O)CCCCC1CCSS1 (stereo unspecified) , TGI value reported: > 100 µM

Kindly note: K-562 leukemia, CC(=O)/C(=C\I)c1ccccc1 , TGI value reported: 4.61 µM

Kindly note: K-562 leukemia, COc1cc2c(c(OC)c1OC)C(=O)NCCC2 , TGI value reported: > 100 µM

Kindly note: K-562 leukemia, COc1ccc(-c2nc(-c3cnccn3)n(C3OC(CO)C(O)C3O)n2)cc1 (stereo unspecified) , TGI value reported: > 10 µM

Kindly note: K-562 leukemia, CN(CCc1ccccn1)c1ccc2c(c1)C(=O)c1ccccc1-2 , TGI value reported: > 100 µM

====

Test system: SR leukemia
measurement protocol: NCI tumour cell line growth inhibition, 48 h
This listing pairs molecules with measured TGI.

[[record]]
molecule = "COc1ccc(-c2nc(Nc3ccccc3)sc2Cc2sc(Nc3ccccc3)nc2-c2ccc(OC)cc2)cc1"
value_measured = "> 100 µM"


Please turn your attention to the following entry.
Just so you know, measured TGI for COc1ccc2nc3cc(Cl)ccc3c(NCCCN3CCN(CCCNc4ccc5nnn6c7ccccc7c(=O)c4c56)CC3)c2c1 came out at > 25 µM

====

Tested on: HT29 colon
measurement protocol: NCI tumour cell line growth inhibition, 48 h; in the data active means GI50 below about 0.43 µM; inactive means the rest
Please reply with one of these outcomes: active, inactive

Here are 6 compounds together with their reported answers.
[[record]]
compound = "C=CC(=O)Nc1cc2c(Nc3ccc(F)c(Cl)c3)ncnc2cc1C#CC(C)(C)N1CCN(C)CC1"
class_name = "inactive"

[[record]]
compound = "CCn1c(-c2nonc2N)nc2cnc(Oc3cccc(NC(=O)c4ccc(N(C)C)cc4)c3)cc21"
class_name = "inactive"

[[record]]
compound = "CSC1=Nc2c(c(C)c(-c3ccccc3)n2COC(CO)CO)C2=NC(=O)CC(C)N12 (stereo unspecified)"
class_name = "inactive"

[[record]]
compound = "CCc1ccc2c(c1)N(CCO)C1=C(C(=O)OC1)C2c1cc(OC)c(OC)c(OC)c1 (stereo unspecified)"
class_name = "active"

[[record]]
compound = "NCCCN=c1ccc2c3c1c(O)c1c(O)ccc(=O)c1c3[nH]n2CCNCCO"
class_name = "inactive"

[[record]]
compound = "NC(=O)/C(=C/n1cnc(-c2cc(C(F)(F)F)cc(C(F)(F)F)c2)n1)c1cncnc1"
class_name = "active"


Attention now turns to another entry.
Name the outcome recorded for COc1cc(/C=C2\SC(N3CCCCC3)=NC2=O)ccc1OCCCCCCOc1ccc(/C=C2\SC(N3CCCCC3)=NC2=O)cc1OC in the assay.
inactive

====

Test system: UACC-62 melanoma
measurement protocol: NCI tumour cell line growth inhibition, 48 h
Where a SMILES comes first, the peptide text is derived from it. The star is where a group is joined. Boc = CC(C)(C)OC(=O)*; nBu = CCCC*
This listing pairs compounds with measured TGI.

Recorded results for 6 compounds are shown here.
[[record]]
compound = "CCCCCC[C@H]1C(=O)O[C@H](C)[C@H](NC(=O)c2cccc(NC=O)c2OC)C(=O)O[C@@H](C)[C@@H]1OC(=O)CCC (tested in a mixture with another compound)"
value_measured = "21.2 µM"

[[record]]
compound = "COc1cc(-c2nn(-c3cccc(NC(=O)CCN4CCN(c5ccccc5)CC4)c3)cc2-c2ccncc2)ccc1Cl"
value_measured = "8.01 µM"

[[record]]
compound = "COc1ccc2nc3cc(Cl)ccc3c(NCCCN3CCN(CCCNc4ccc5nnn6c7ccccc7c(=O)c4c56)CC3)c2c1"
value_measured = "> 25 µM"

[[record]]
compound = "CC(=O)/C(=C\\I)c1ccccc1"
value_measured = "3.96 µM"

[[record]]
compound = "Cc1c(/C=N/NC(=S)N2CCCCC2)c(=O)n(-c2ccccc2)n1C"
value_measured = "> 100 µM"

[[record]]
compound = "OCCN(CO)CO"
value_measured = "> 100 µM"


Just so you know, measured TGI for CCCCOc1ccc(CC(NC(=O)OC(C)(C)C)C(=O)NC(C)C(=O)NC(Cc2ccccc2)C(=O)NCC(N)=O)cc1 (centres undefined) (Boc-Y(nBu)AFG-NH2; configuration not given here) came out at > 100 µM

Just so you know, measured TGI for Cc1c(-c2ccccc2)[nH]c2cn[nH]c(=O)c12 came out at > 100 µM

Just so you know, measured TGI for CCN(c1ccccc1)[C@H]1C(=O)N(c2ccc([N+](=O)[O-])cc2)[C@H]1c1ccc(OC)cc1 came out at > 100 µM

====

Tested on: RPMI-8226 leukemia
measurement protocol: NCI tumour cell line growth inhibition, 48 h
This listing pairs compounds with measured TGI.

Recorded results for 10 compounds are shown here.
[[record]]
compound = "CC(C)[C@H]1NC(=O)[C@H]2N=C(S[C@H]2C)[C@@H]2CCCN2C(=O)[C@H](Cc2ccccc2)NC(=O)[C@@H]2CSC(=N2)[C@@H](Cc2ccccc2)NC(=O)[C@@H]2CSC1=N2"
value_measured = "19.8 µM"

[[record]]
compound = "CCOC(=O)c1c(CN2CCN(C)CC2)nc2ccc(Cl)cc2c1-c1ccccc1"
value_measured = "12.7 µM"

[[record]]
compound = "CN1CCC(C(O)(c2ccccc2)c2ccc(Br)cc2)CC1 (stereo unspecified)"
value_measured = "45.8 µM"

[[record]]
compound = "Cn1cnnc1[S-].[Au+].c1ccc([PH+](c2ccccc2)c2ccccc2)cc1"
value_measured = "5.39 µM"

[[record]]
compound = "COc1cc(C2c3cc4c(cc3C(=O)C3CCC(=O)N32)OCO4)cc(OC)c1O (stereo unspecified)"
value_measured = "> 50 µM"

[[record]]
compound = "COc1ccccc1-c1c(C#N)c(N)[nH]c(=S)c1C#N"
value_measured = "> 100 µM"

[[record]]
compound = "COc1ccc(COCC[C@H](C)OC2OC(CO)C(O)C(O)C2O)cc1 (stereo partly specified)"
value_measured = "> 100 µM"

[[record]]
compound = "CC1(C)C2CCC13C(=O)C1OC3(C2)C2C(=O)c3c(ccc4c3ccc3ccccc34)C(=O)C12 (stereo unspecified)"
value_measured = "> 60 µM"

[[record]]
compound = "C[C@@H]1CCc2ncc(F)cc2[C@H]2CCCN2c2ccn3ncc(c3n2)C(=O)N1"
value_measured = "> 100 µM"

[[record]]
compound = "C[C@@H]1CC[C@@H]2[C@@H](C1)O[C@@H]([C@@H](C)OCc1ccccc1)SC2(C)C"
value_measured = "35.4 µM"


Just so you know, measured TGI for Nc1ccccc1C#Cc1ccccc1C#Cc1cccs1 came out at 40.6 µM

Just so you know, measured TGI for O=[N+]([O-])c1cccc(Nc2nc(Cl)nc(Cl)n2)c1 came out at > 100 µM

Just so you know, measured TGI for CSc1nc(=O)cnn1C came out at > 100 µM

Just so you know, measured TGI for C[As](C)SC1OCC(O)C(O)C1O (stereo unspecified) came out at 0.604 µM

Just so you know, measured TGI for O=C1OC([C@H](O)c2cccnc2)c2ccccc21 (stereo partly specified) came out at > 10 µM

Just so you know, measured TGI for CC1OC(OC2C(O)C(O)C(O)C(O)C2O)C(N)CC1N=C(N)C(=O)O (stereo unspecified) came out at > 100 µM

Just so you know, measured TGI for COc1ccc(C2NC(=S)NC3=C2CCOc2c3ccc3ccccc23)cc1 (stereo unspecified) came out at > 100 µM

Just so you know, measured TGI for Cc1c(-c2ccccc2)[nH]c2cn[nH]c(=O)c12 came out at > 100 µM
